assay: Minimum inhibitory concentration against Streptococcus pneumoniae 5737 MLSB; type: functional
ASSAY_METRIC: MIC (µg/mL)

Consider the following illustrative entries.
# COMPOUND, MIC, µg/mL
measured = [
    ("CC[C@H]1OC(=O)[C@H](C)C(=O)[C@H](C)[C@@H](O[C@@H]2O[C@H](C)C[C@H](N(C)C)[C@H]2O)[C@](C)(OC/C=C/c2cccc3ncccc23)C[C@@H](C)C(=O)[C@H](C)[C@H]2NC(=O)O[C@@]21C", 2),
    ("CC[C@H]1OC(=O)[C@H](C)C(=O)[C@H](C)[C@@H](O[C@@H]2O[C@H](C)C[C@H](N(C)C)[C@H]2O)[C@](C)(OC/C=C/c2ccc(OC)cc2)C[C@@H](C)C(=O)[C@H](C)[C@@H](O)[C@]1(C)O", 128),
    ("CC[C@H]1OC(=O)[C@H](C)C(=O)[C@H](C)[C@@H](O[C@@H]2O[C@H](C)C[C@H](N(C)C)[C@H]2O)[C@](C)(OC/C=C/c2cnc3ccncc3c2)C[C@@H](C)C(=O)[C@H](C)[C@H]2NC(=O)O[C@@]21C", 0.25),
    ("CC[C@H]1OC(=O)[C@H](C)C(=O)[C@H](C)[C@@H](O[C@@H]2O[C@H](C)C[C@H](N(C)C)[C@H]2O)[C@](C)(OC/C=C/c2cnc3ccccc3c2)C[C@@H](C)C(=O)[C@H](C)[C@H]2N(C)C(=O)O[C@]12C", 1),
]

(I) CC[C@H]1OC(=O)[C@H](C)C(=O)[C@H](C)[C@@H](O[C@@H]2O[C@H](C)C[C@H](N(C)C)[C@H]2O)[C@](C)(OC/C=C/c2cnc3ccccc3c2)C[C@@H](C)C2=NCCN3C(=O)O[C@@]1(C)[C@H]3[C@H]2C
(II) CC[C@H]1OC(=O)[C@H](C)C(=O)[C@H](C)[C@@H](O[C@@H]2O[C@H](C)C[C@H](N(C)C)[C@H]2O)[C@](C)(OC/C=C/c2cnc3cccnc3c2)C[C@@H](C)C(=O)[C@H](C)[C@H]2NC(=O)O[C@@]21C
Req: Please indicate which item has the smaller measured MIC: I versus II Select an item and report its label.
Resp: II
(II: 0.25 µg/mL, I: 128 µg/mL)

(1) CC[C@H]1OC(=O)[C@H](C)[C@@H](O[C@H]2C[C@@](C)(OC)[C@@H](O)[C@H](C)O2)[C@H](C)[C@@H](O[C@@H]2O[C@H](C)C[C@H](N(C)C)[C@H]2O)[C@](C)(OC/C=C/c2cnc3ccccc3c2)C[C@@H](C)C(=O)[C@H](C)[C@@H](O)[C@]1(C)O
(2) CC[C@H]1OC(=O)[C@H](C)C(=O)[C@H](C)[C@@H](O[C@@H]2O[C@H](C)C[C@H](N(C)C)[C@H]2O)[C@](C)(OC/C=C/c2cnc3ccccc3c2)C[C@@H](C)C(=O)[C@H](C)[C@H]2N(CCN(C)C)C(=O)O[C@]12C
(3) CC[C@H]1OC(=O)[C@H](C)C(=O)[C@H](C)[C@@H](O[C@@H]2O[C@H](C)C[C@H](N(C)C)[C@H]2O)[C@](C)(OCCCc2ccccc2)C[C@@H](C)C(=O)[C@H](C)[C@@H](O)[C@]1(C)O
Req: Reorder the items by MIC, least to greatest. Return the labels ranked in the requested order, please.
Resp: 2, 3, 1
(2: 4 µg/mL, 3: 32 µg/mL, 1: 128 µg/mL)

(a) CC[C@H]1OC(=O)[C@H](C)C(=O)[C@H](C)[C@@H](O[C@@H]2O[C@H](C)C[C@H](N(C)C)[C@H]2O)[C@](C)(OC/C=C/c2ccc3ncccc3c2)C[C@@H](C)C(=O)[C@H](C)[C@H]2NC(=O)O[C@@]21C
(b) CC[C@H]1OC(=O)[C@H](C)C(=O)[C@H](C)[C@@H](O[C@@H]2O[C@H](C)C[C@H](N(C)C)[C@H]2O)[C@](C)(OC/C=C/c2cccc3cnccc23)C[C@@H](C)C(=O)[C@H](C)[C@H]2NC(=O)O[C@@]21C
Req: // returns a or b , whichever has the lower MIC Output the label that corresponds to your choice.
Resp: a
(a: 1 µg/mL, b: 8 µg/mL)

---

assay: Minimum inhibitory concentration against Streptococcus pyogenes 930MLSB; format: functional
ASSAY_METRIC: MIC (µg/mL)

(I) CC[C@H]1OC(=O)[C@H](C)C(=O)[C@H](C)[C@@H](O[C@@H]2O[C@H](C)C[C@H](N(C)C)[C@H]2O)[C@](C)(OC/C=C/c2ccccc2)C[C@@H](C)C(=O)[C@H](C)[C@@H](O)[C@]1(C)O
(II) CC[C@H]1OC(=O)[C@H](C)C(=O)[C@H](C)[C@@H](O[C@@H]2O[C@H](C)C[C@H](N(C)C)[C@H]2O)[C@](C)(OC/C=C/c2cnc3ccccc3c2)C[C@@H](C)C(=O)[C@H](C)[C@H]2N(CCN(C)C)C(=O)O[C@]12C
Req: Dear colleague, could you let me know whether I or II has the lower recorded MIC? Thanks. Give the chosen item's label as your response.
Resp: II
(II: 32 µg/mL, I: 64 µg/mL)

---

assay: Minimum inhibitory concentration against Streptococcus pyogenes 930MLSB; type: functional
ASSAY_METRIC: MIC (µg/mL)

# STRUCTURE, MEASUREMENT_UNIT, TEST_RESULT
data = [
    ("CC[C@H]1OC(=O)[C@H](C)C(=O)[C@H](C)[C@@H](O[C@@H]2O[C@H](C)C[C@H](N(C)C)[C@H]2O)[C@](C)(OC/C=C/c2ccc(OC)cc2)C[C@@H](C)C(=O)[C@H](C)[C@@H](O)[C@]1(C)O", "µg/mL", 64),
]

(1) CC[C@H]1OC(=O)[C@H](C)[C@@H](O[C@H]2C[C@@](C)(OC)[C@@H](O)[C@H](C)O2)[C@H](C)[C@@H](O[C@@H]2O[C@H](C)C[C@H](N(C)C)[C@H]2O)[C@](C)(OC/C=C/c2cnc3ccccc3c2)C[C@@H](C)C(=O)[C@H](C)[C@@H](O)[C@]1(C)O
(2) CC[C@H]1OC(=O)[C@H](C)C(=O)[C@H](C)[C@@H](O[C@@H]2O[C@H](C)C[C@H](N(C)C)[C@H]2O)[C@](C)(OC/C=C/c2cnc3nccnc3c2)C[C@@H](C)C(=O)[C@H](C)[C@H]2NC(=O)O[C@@]21C
(3) CC[C@H]1OC(=O)[C@H](C)C(=O)[C@H](C)[C@@H](O[C@@H]2O[C@H](C)C[C@H](N(C)C)[C@H]2O)[C@](C)(OC/C=C/c2cnc3cccnc3c2)C[C@@H](C)C(=O)[C@H](C)[C@H]2NC(=O)O[C@@]21C
Req: Ordering: ascending MIC. Give me the labels in the order the question wants.
Resp: 3, 2, 1

---

experiment: Minimum inhibitory concentration against Streptococcus pneumoniae 5737 MLSB; assay type: functional
ASSAY_METRIC: MIC (µg/mL)

# STRUCTURE, MIC / µg/mL
records = [
    ("CC[C@H]1OC(=O)[C@H](C)C(=O)[C@H](C)[C@@H](O[C@@H]2O[C@H](C)C[C@H](N(C)C)[C@H]2O)[C@](C)(OC/C=C/c2ccc3nnccc3c2)C[C@@H](C)C(=O)[C@H](C)[C@H]2NC(=O)O[C@@]21C", 1),
]

(A) CC[C@H]1OC(=O)[C@H](C)C(=O)[C@H](C)[C@@H](O[C@@H]2O[C@H](C)C[C@H](N(C)C)[C@H]2O)[C@](C)(OC/C=C/c2ccnc3ccccc23)C[C@@H](C)C(=O)[C@H](C)[C@H]2NC(=O)O[C@@]21C
(B) CC[C@H]1OC(=O)[C@H](C)C(=O)[C@H](C)[C@@H](O[C@@H]2O[C@H](C)C[C@H](N(C)C)[C@H]2O)[C@](C)(OC/C=C/c2cccc3ccccc23)C[C@@H](C)C(=O)[C@H](C)[C@H]2NC(=O)O[C@@]21C
(C) CC[C@H]1OC(=O)[C@H](C)C(=O)[C@H](C)[C@@H](O[C@@H]2O[C@H](C)C[C@H](N(C)C)[C@H]2O)[C@](C)(OC/C=C/c2cncc3ccccc23)C[C@@H](C)C(=O)[C@H](C)[C@H]2NC(=O)O[C@@]21C
(D) CC[C@H]1OC(=O)[C@H](C)[C@@H](O[C@H]2C[C@@](C)(OC)[C@@H](O)[C@H](C)O2)[C@H](C)[C@@H](O[C@@H]2O[C@H](C)C[C@H](N(C)C)[C@H]2O)[C@](C)(OC/C=C/c2ccccc2)C[C@@H](C)C(=O)[C@H](C)[C@@H](O)[C@]1(C)O
(E) CC[C@H]1OC(=O)[C@H](C)C(=O)[C@H](C)[C@@H](O[C@@H]2O[C@H](C)C[C@H](N(C)C)[C@H]2O)[C@](C)(OC/C=C/c2ccc3nccnc3c2)C[C@@H](C)C(=O)[C@H](C)[C@H]2NC(=O)O[C@@]21C
Req: List the 5 entries from lowest MIC to highest MIC value. Kindly provide the labels arranged according to the requested ordering.
Resp: E, B, D, C, A
